From: the PETadex activity labels (doi:10.1021/acsomega.4c04843)

Consider the following proteins; for each one, report its Proxy for plastic degradation.
substrate: pNPB; assay: Proxy for plastic degradation [p-nitrophenol (pNP) release]; settings: pH 7.4
Could you give me the number in U/mL? Just the number is fine.

Bench note: what Proxy for plastic degradation did unnamed (protein) MFRFHIVSALLTLFIAVPSQAHDVGQREIKISGAEPGRNLEVSVWYPAAIDGKATLIGDNIIFKGAPAVIDATPEKGSFPLLVMSHGSGGRAQGMAWLATELVKAGIIVAAPNHPGTTSGDSTPQDTPKIWQRTGDLSAVIDTMTTDPAWSGIIDKNKISVLGFALGGAAAMEIAGARANLEAYARYCDTYGKWDCAWYAGGIGYRDDKQIKVDKVDLRSVDKSRFEQSNLDRRIASAIMIDPGLAQAYDAQSLASISIPMSFINLGEVETIPTGVVADKLASITPQGTYVTVAGATHFSFLPECKKGAADRLKSAGEVDPICSDDARRPRADIHADITKLVLKALQSMPKT show?
15

Bench note: what Proxy for plastic degradation did unnamed (protein) MFRFHIVSALLTLFIAVPSQAHDVGQREIKISGAEPGRNLEVSVWYPAAIDGKATLIGDNIIFKGAPAVIDATPEKGSFPLLVMSHGSGGRAQGMAWLATELVKAGIIVAAPNHPGTTSGDSTPQDTPKIWQRTGDLSAVIDTMTTDPAWSGIIDKNKISVLGFSLGGAAAMEIAGARANLEAYARYCDTYGKWDCAWYAGGIGYRDDKQIKVDKVDLRSVDKSRFEQSNLDRRIASAIMIDPGLAQAYDAQSLASISIPMSFINLGEVETIPTGVVADKLASITPQGTYVTVAGATHISFLPECKKGAADRLKSAGEVDPICSDDARRPRADIHADITKLVLKALQSMPKT show?
75

Bench note: what Proxy for plastic degradation did unnamed (protein) MVPTTVDFDTLCPEPIFQDRWVATPRGRVFTRTWETSHLRSDVPIVLLHDSLGCVDLWRSFPAALCAATQRRVIAYDRLGFGRSDACLTPPLLSFIDDEPSTSFAALQSAFQLTHFIALGHSVGGCMAVHCAGQYVEQCQGLITIAAQAVNEPRTQQGIEEARAAFQMPEQFAKLEKYHGNKARWVLNGWIDTWLHPAFEHWSLTPALQHVHCPTLVLHGENDEYGSHRQPEGIARHTRGPAHTEILPGVGHVPHREVEAVVVHYVSEFIERLTP show?
30

Bench note: what Proxy for plastic degradation did unnamed (protein) MFRFHIVSALLTLFIAVPSQAHDVGQREIKISGAEPGRNLEVSVWYPAAIDGKATLIGDNIIFKGAPAVIDATPEKGSFPLLVMSHGSGGRAQGMAWLATELVKAGIIVAAPNHPGTTSGDSTPQDTPKIWQRTGDLSAVIDTMTTDPAWSGIIDKNKISVLGWSLGGAAAMEIAGARANLEAYARYCDTYGKWDCAWYAGGIGYRDDKQIKVDKVDLRSVDKSRFEQSNLDRRIASAIMIDPGLAQAYDAQSLASISIPMSFINLGEVETIPTGVVADKLASITPQGTYVTVAGATHFSFLPECKKGAADRLKSAGEVDPICSDDARRPRADIHADITKLVLKALQSMPKT show?
5

Bench note: what Proxy for plastic degradation did unnamed (protein) MFRFHIVSALLTLFIAVPSQAHDVGQREIKISGAEPGRNLEVSVWYPAAIDGKATLIGDNIIFKGAPAVIDATPEKGSFPLLVMSHGSGGRAQGMAWLATELVKAGIIVAAPNHPGTTSGDSTPQDTPKIWQRTGDLSAVIDTMTTDPAWSGIIDKNKISVLGFSLGGAAAMEIAGARANLEAYARYCDTYGKWDCAWYAGGIGYRDDKQIKVDKVDLRSVDKSRFEQSNLDRRIASAIMIAPGLAQAYDAQSLASISIPMSFINLGEVETIPTGVVADKLASITPQGTYVTVAGATHFSFLPECKKGAADRLKSAGEVDPICSDDARRPRADIHADITKLVLKALQSMPKT show?
20

Bench note: what Proxy for plastic degradation did unnamed (protein) MFRFHIVSALLTLFIAVPSQAHDVGQREIKISGAEPGRNLEVSVWYPAAIDGKATLIGDNIIFKGAPAVIDATPEKGSFPLLVMSHGSGGRAQGMAWLATELVKAGIIVAAPNHPGTTSGDSTPQDTPKIWQRTGDLSAVIDTMTTDPAWSGIIDKNKISVLGFSLGGAAAMEIAGARANLEAYARYCDTYGKWDCAWYAGGIGYRDDKQIKVDKVDLRSVDKSRFEQSNLDRRIASAIMIDPGLAQAYDAQSLASISIPMSFINLGEVETIPTGVVADKLASITPQGTYVTVAGATAFSFLPECKKGAADRLKSAGEVDPICSDDARRPRADIHADITKLVLKALQSMPKT show?
15

Bench note: what Proxy for plastic degradation did unnamed (protein) MFRFHIVSALLTLFIAVPSQAHDVGQREIKISGAEPGRNLEVSVWYPAAIDGKATLIGDNIIFKGAPAVIDATPEKGSFPLLVMSHGSGGRAQGMAWLATELVKAGIIVAAPNHPGTTSGDSTPQDTPKIWQRTGDLSAVIDTMTTDPAWSGIIDKNKISVLGHSLGGAAAMEIAGARANLEAYARYCDTYGKWDCAWYAGGIGYRDDKQIKVDKVDLRSVDKSRFEQSNLDRRIASAIMIDPGLAQAYDAQSLASISIPMSFINLGEVETIPTGVVADKLASITPQGTYVTVAGATHFSFLPECKKGAADRLKSAGEVDPICSDDARRPRADIHADITKLVLKALQSMPKT show?
15

Bench note: what Proxy for plastic degradation did unnamed (protein) MRKETAWFVGGAAIAAATAAGASVWSQYGSLVRWQEPELPIQPTTRRRHTYTYKIVHDRPLQFDLYLPPGEGPFPVAVYAHGGAFVRGNRSMVTLFHPLLDHFLGKGIAVVSIDYRLFEDGVYFPDNIFDVSDALCYLKQHESLLTLDTSQLLVWGDSAGAALMLATALDRYRQFAGDLGDDLPTIKGVIALYPPTNFLLFKFIQTWLAHLKFYEGSREEWRELMVKCSPVSHLYADAPPILLLHGKKDPIVPFGQALHFVEHASDVGANVQLISFPNGTHSLASFLQSDNPIKEEQLMARINRFIEECLG show?
25
